target.entity: Aryl hydrocarbon receptor (Homo sapiens)
experiment.description: AHR activators, primary screen, cell-based, luminescence, luciferase reporter, human (AID 2796);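 also: 0% = vehicle wells and 100% = reference agonist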
condition.details: AHR-responsive luciferase reporter cells, at 5 µM, active compounds read high
Out of some 320,000 compounds screened, about 8,000 (2.5%) were called active. The list comes from a sample in which actives are over-represented; it also holds close analogues and randomly drawn compounds.
Below is a list of entries, each paired with its recorded activation value.
Only the number, expressed in %, is required.

A selection of reference data follows.
compound	unit.text	activation
Nc1c(C(=O)c2cccs2)sc2nsc(SCCN3CCCCC3)c12	%	25.2
c1ccc(NCc2cccc3ccccc23)nc1	%	67.9
COc1ccc(N2C(=O)c3cccc4cccc(c34)C2=O)nn1	%	65

Give the observed activation of Cc1nn(Cc2ccccc2Cl)c(C)c1NC(=O)Cn1nc([N+](=O)[O-])c(Cl)c1C for Aryl hydrocarbon receptor (Homo sapiens).
0.37

Fetch value of activation on Aryl hydrocarbon receptor (Homo sapiens) for CCNC(=O)c1sccc1-n1cccc1 .
0.75

Return reported activation for target or system Aryl hydrocarbon receptor (Homo sapiens), item CC1CN(C(=O)c2ccc3c(c2)OCO3)OC(c2ccccc2)O1 (stereo not drawn) .
3.64

// fetch activation; item: COc1ccc2ccccc2c1CNCc1ccccn1 ; system: Aryl hydrocarbon receptor (Homo sapiens)
18.4

Please respond with reported activation (system Aryl hydrocarbon receptor (Homo sapiens)) for O=C(CCC(=O)N/N=C/c1ccc(Br)o1)N/N=C/c1ccc(Br)o1 .
4.48

Give activation for this entry on Aryl hydrocarbon receptor (Homo sapiens): COc1ccc(OC)c(N=Cc2c(O)[nH]c3ccccc23)c1
54.3

Would you please give the reported activation of COc1cc(/C=N/N=C(\N)c2nonc2N)cc(OC)c1OC with Aryl hydrocarbon receptor (Homo sapiens)?
91.3

====

target.entity: Aryl hydrocarbon receptor (Homo sapiens) (UniProt P35869)
Sequence (P35869 whole entry, looked up): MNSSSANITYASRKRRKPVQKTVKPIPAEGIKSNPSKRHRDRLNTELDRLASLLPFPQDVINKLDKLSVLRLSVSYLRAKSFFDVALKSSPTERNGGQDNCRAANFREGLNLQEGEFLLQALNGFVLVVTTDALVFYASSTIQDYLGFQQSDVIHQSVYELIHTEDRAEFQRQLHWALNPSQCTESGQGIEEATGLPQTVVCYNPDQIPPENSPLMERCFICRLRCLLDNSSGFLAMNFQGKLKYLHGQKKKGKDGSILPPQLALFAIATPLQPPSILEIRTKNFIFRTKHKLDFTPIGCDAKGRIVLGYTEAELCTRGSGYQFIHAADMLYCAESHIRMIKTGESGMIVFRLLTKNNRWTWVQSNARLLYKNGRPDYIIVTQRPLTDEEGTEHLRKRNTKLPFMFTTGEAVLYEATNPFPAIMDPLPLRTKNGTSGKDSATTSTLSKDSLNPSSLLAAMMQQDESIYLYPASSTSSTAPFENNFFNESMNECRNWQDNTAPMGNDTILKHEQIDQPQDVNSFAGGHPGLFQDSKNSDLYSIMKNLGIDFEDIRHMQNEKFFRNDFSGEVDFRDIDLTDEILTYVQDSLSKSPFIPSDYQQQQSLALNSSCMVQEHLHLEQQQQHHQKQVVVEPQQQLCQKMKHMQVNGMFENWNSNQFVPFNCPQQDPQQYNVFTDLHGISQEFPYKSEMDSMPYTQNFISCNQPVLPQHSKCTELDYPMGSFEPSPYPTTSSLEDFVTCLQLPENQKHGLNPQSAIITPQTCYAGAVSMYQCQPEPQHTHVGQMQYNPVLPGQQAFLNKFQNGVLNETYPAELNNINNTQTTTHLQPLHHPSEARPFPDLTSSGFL
experiment.description: AHR activators, primary screen, cell-based, luminescence, luciferase reporter, human (AID 2796);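 also: 0% = vehicle wells and 100% = reference agonist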
condition.details: AHR-responsive luciferase reporter cells, at 5 µM, active compounds read high
Among all 320,000 compounds or so, about 8,000 (2.5%) were called active. This excerpt belongs to a sample that is enriched for actives.
experimental.endpoint: activation (%)
// note: answer is a bare numeric in %

Specify activation for Cc1no[n+]([O-])c1COc1ccccc1/C=C1\NC(=S)NC1=O and stop.
25.2

Using the record for O=C(CSc1ccccn1)Nc1nc2c(ccc3ccccc32)s1 , state its measured activation.
96.3

State, in one line, measured activation of COC(=O)c1ccc(NC(=O)Nc2ccc(C)cc2)cc1
1.57

Provide activation value for the following compound: CCOC(=O)CSc1ccccn1
-0.06

Retrieve activation measured for Cc1nc(-c2ccc([N+](=O)[O-])cc2)c(-c2ccccc2)o1 and print it.
1.84

Quick one: give measured activation for COc1cc(NC(=O)Nc2ccc(C)cc2)cc([N+](=O)[O-])c1
61.8

====

target.entity: Aryl hydrocarbon receptor (Homo sapiens)
experiment.description: AHR activators, primary screen, cell-based, luminescence, luciferase reporter, human (AID 2796);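 also: 0% = vehicle wells and 100% = reference agonist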
condition.details: AHR-responsive luciferase reporter cells, at 5 µM, active compounds read high
Hit rate of the full screen: of about 320,000 compounds, about 8,000 (2.5%) were called active. This is one part of a sample in which actives are shown more often than they occur.
experimental.endpoint: activation (%)
Numeric only. Scale: %

The cases that follow already have their activation on record.
molecule	target.entity	activation, %
CCC(C(=O)N1CCN(S(=O)(=O)c2sc(C(=O)O)c(C)c2C(=O)O)CC1)c1ccccc1 (stereo unspecified)	Aryl hydrocarbon receptor (Homo sapiens)	-0.9
CC1=NN(C(=O)CCc2ccccc2O)C(O)(C(F)(F)F)C1 (stereo unspecified)	Aryl hydrocarbon receptor (Homo sapiens)	-1.07
Clc1ccc(-c2nnc(SCc3nc4ccccc4s3)o2)cc1	Aryl hydrocarbon receptor (Homo sapiens)	18.2
CCCC(=O)Nc1nnc(CC(=O)OCC)s1	Aryl hydrocarbon receptor (Homo sapiens)	3.91
C#CCSc1nnc(-c2sc3ccccc3c2Cl)o1	Aryl hydrocarbon receptor (Homo sapiens)	89.2

API: the following record is the query input.
Entry O=C(NCC#CCSc1nnc(-c2cccc3ccccc23)o1)c1cccs1 needs its activation filled in; supply it.
-2.43
